# TARGET OR SYSTEM: Estrogen Receptor ERα (Homo sapiens)
# Sequence (P03372 311-547 limits assumed): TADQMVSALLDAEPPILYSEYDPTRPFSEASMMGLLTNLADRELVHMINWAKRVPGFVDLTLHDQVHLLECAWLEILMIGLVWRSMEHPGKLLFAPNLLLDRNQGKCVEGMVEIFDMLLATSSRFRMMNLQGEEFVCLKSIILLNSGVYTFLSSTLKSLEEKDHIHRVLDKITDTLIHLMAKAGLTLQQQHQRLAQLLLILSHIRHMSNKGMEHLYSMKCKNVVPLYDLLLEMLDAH
# ASSAY INFO: cell-based
# ASSAY SETUP: This Study; relative estrogenic potency vs BPA
# Text: All bioassay media components and the ERα-UAS-bla GripTite and PPARγ-UAS-bla cells were obtained from Thermo Fisher Scientific (Waltham, MA, USA). AREc32 reporter gene cells based on MCF7 were provided by C. Roland Wolf (Cancer Research UK); AhR CALUX cells (H4L7.5c2 derived from H4IIe) were provided by Michael Denison (UC Davis, USA); and SH-SY5Y cells were purchased from Sigma-Aldrich. […]
Condition met means recorded REPBPA is 0.5 or above; Condition not met means it is below 0.5.

A selection of reference data follows.
1) CC1(C)C(O)C(C)(C)C1O (racemic) [r-TMCD] | Condition not met
2) C=CCOc1ccc(S(=O)(=O)c2ccc(O)cc2)cc1 [BPS-MAE, 4-[[4-(Allyloxy)phenyl]sulfonyl]phenol] | Condition not met
3) CC(C)(c1ccc(O)cc1)c1ccc(O)cc1 [BPA, 4,4'-(Propane-2,2-diyl)diphenol, reference compound] | Condition met
4) CCC(C)(c1ccc(O)cc1)c1ccc(O)cc1 [BPB, 4,4'-(Butane-2,2-diyl)diphenol] | Condition met
5) O=S(=O)(c1ccc(O)cc1)c1ccc(O)cc1 [BPS, 4,4'-Sulfonyldiphenol] | Condition not met
6) O=S(=O)(c1ccc(O)cc1)c1ccccc1O [24BPS] | Condition not met

Identify whether the reported REPBPA of the following compound is 0.5 or greater: CC(C)Oc1ccc(S(=O)(=O)c2ccc(O)cc2)cc1 [D8, 4-((4-Isopropoxyphenyl)sulfonyl)phenol]
Condition not met

Identify whether the reported REPBPA of the following compound is 0.5 or greater: COC(=O)C(c1ccc(O)cc1)c1ccc(O)cc1 [Bz, Methyl bis(4-hydroxyphenyl)acetate]
Condition not met
